Measured pEC50, listed per entry.
System: Plasmodium falciparum
Test: Antimalarial activity against Plasmodium falciparum K1
Format: functional
Details: Plasmodium falciparum, K1; read-out: ED50 (the source's name)
Note on units: pEC50 is unitless, being -log10 of a concentration expressed in mol/L.

// known answers, use as guide
>  <Compound>
Cn1cncc1CN1CC(N(Cc2ocnc2-c2ccccc2)S(=O)(=O)c2ccccn2)Cc2cc(C#N)ccc21 (configuration not stated)

>  <pEC50>
6.68

$$$$
>  <Compound>
Cn1cncc1CN1CC(N(CC(=O)NC(C)(C)C)S(=O)(=O)c2nccn2C)Cc2cc(C#N)ccc21 (configuration not stated)

>  <pEC50>
5.51

$$$$
>  <Compound>
Cn1cnc(S(=O)(=O)N(Cc2ccc3cccnc3c2)C2Cc3cc(C#N)ccc3N(Cc3cncn3C)C2)c1 (configuration not stated)

>  <pEC50>
6.22

$$$$
>  <Compound>
CCN(CCCCN(C1Cc2cc(C#N)ccc2N(Cc2cncn2C)C1)S(=O)(=O)c1ccccn1)C(=O)OC (configuration not stated)

>  <pEC50>
6.22

$$$$
>  <Compound>
CC(C)OC(=O)N1CCC(CN(C2Cc3cc(C#N)ccc3N(Cc3cncn3C)C2)S(=O)(=O)c2ccccn2)CC1 (configuration not stated)

>  <pEC50>
7.30

$$$$

Q) Recorded pEC50 of Cn1cnc(S(=O)(=O)N(Cc2ccc(-n3cncn3)cc2)C2Cc3cc(C#N)ccc3N(Cc3cncn3C)C2)c1 (configuration not stated) , please.
A) 6.47

Q) Find the recorded pEC50 belonging to Cn1cncc1CN1CC(N(Cc2ccc(S(C)(=O)=O)cc2)S(=O)(=O)c2ccccc2)Cc2cc(C#N)ccc21 (configuration not stated) and report it.
A) 6.48

Q) Looking for the measured pEC50 of Cn1cncc1CN1CC(N(CC2CCN(C(=O)C(C)(C)C)CC2)S(=O)(=O)c2ccccn2)Cc2cc(C#N)ccc21 (configuration not stated) , can you help?
A) 7.12

###

System: Plasmodium falciparum
Assay: Antimalarial activity against Plasmodium falciparum K1
Type: functional
Conditions: Plasmodium falciparum, K1; read-out: ED50 (the source's name)
Entries whose EC50 is below 800 nM take true; entries at or above 800 nM take false.

>  <Molecule>
COC(=O)N1CCC(CN(C2Cc3cc(C#N)ccc3N(Cc3cncn3C)C2)S(=O)(=O)c2cccc3ccccc23)CC1 (stereo not drawn)

>  <Assigned Label>
false

$$$$
>  <Molecule>
CN(C)C(=O)N1CCC(CN(C2Cc3cc(C#N)ccc3N(Cc3cncn3C)C2)S(=O)(=O)c2ccccn2)CC1 (stereo not drawn)

>  <Assigned Label>
true

$$$$
>  <Molecule>
COCCCN(C1Cc2cc(C#N)ccc2N(Cc2cncn2C)C1)S(=O)(=O)c1ccccn1 (stereo not drawn)

>  <Assigned Label>
false

$$$$
>  <Molecule>
Cc1cc(=O)n(CCCCN(C2Cc3cc(C#N)ccc3N(Cc3cncn3C)C2)S(=O)(=O)c2ccccn2)c(=O)n1C (stereo not drawn)

>  <Assigned Label>
true

$$$$
>  <Molecule>
Cn1cncc1CN1CC(N(CC(N)=O)S(=O)(=O)c2ccccn2)Cc2cc(C#N)ccc21 (stereo not drawn)

>  <Assigned Label>
false

$$$$
>  <Molecule>
Cc1oncc1CN(C1Cc2cc(-c3ccccc3)ccc2N(Cc2cn(C)cn2)C1)S(=O)(=O)c1cn(C)cn1 (stereo not drawn)

>  <Assigned Label>
false

$$$$
>  <Molecule>
Cn1cnc(S(=O)(=O)N(CC(=O)NC(C)(C)C)C2Cc3cc(C(=O)O)ccc3N(Cc3cncn3C)C2)c1 (stereo not drawn)

>  <Assigned Label>
false

$$$$

For the next question, use this molecule.
Q) Does Cn1cncc1CN1CC(N(Cc2ccc(Br)cc2)S(=O)(=O)c2ccccn2)Cc2cc(C#N)ccc21 (stereo not drawn) have EC50 strictly under 800 nM?
A) true

###

System: Plasmodium falciparum
Assay: Antimalarial activity against Plasmodium falciparum K1
Type: functional
Conditions: Plasmodium falciparum, K1; read-out: ED50 (the source's name)
Output 1 for records whose EC50 is lower than 200 nM, -1 for records at or above 200 nM.

Example entries and their recorded answers appear below.
>  <Molecule>
Cn1cnc(S(=O)(=O)N(Cc2ccccc2C(F)(F)F)C2Cc3cc(C#N)ccc3N(Cc3cncn3C)C2)c1 (stereo not drawn)

>  <Assigned Label>
1

$$$$
>  <Molecule>
Cn1cc(S(=O)(=O)N(Cc2ccc(S(C)(=O)=O)cc2)C2Cc3cc(C#N)ccc3N(Cc3cncn3C)C2)cn1 (stereo not drawn)

>  <Assigned Label>
1

$$$$
>  <Molecule>
CSCCC(=O)N(Cc1ccccc1F)C1Cc2cc(C#N)ccc2N(Cc2cncn2C)C1 (stereo not drawn)

>  <Assigned Label>
-1

$$$$
>  <Molecule>
Cc1ccccc1CN(C1Cc2cc(C#N)ccc2N(Cc2cncn2C)C1)S(=O)(=O)c1cn(C)cn1 (stereo not drawn)

>  <Assigned Label>
1

$$$$
>  <Molecule>
CN(CCCN(C1Cc2cc(C#N)ccc2N(Cc2cncn2C)C1)S(=O)(=O)c1ccccn1)C(=O)OC(C)(C)C (stereo not drawn)

>  <Assigned Label>
1

$$$$
>  <Molecule>
Cn1cnc(CN2CC(N(CC(=O)NC(C)(C)C)S(=O)(=O)c3cccs3)Cc3cc(-c4ccccc4)ccc32)c1 (stereo not drawn)

>  <Assigned Label>
-1

$$$$
>  <Molecule>
Cn1cnc(S(=O)(=O)N(CCc2ccccc2C(F)(F)F)C2Cc3cc(C#N)ccc3N(Cc3cncn3C)C2)c1 (stereo not drawn)

>  <Assigned Label>
1

$$$$
>  <Molecule>
COC(=O)N1CCC(CN(C2Cc3cc(C#N)ccc3N(Cc3cncn3C)C2)S(=O)(=O)c2cncn2C)CC1 (stereo not drawn)

>  <Assigned Label>
1

$$$$

Q) Confirm or reject: EC50 of COC(=O)N1CCC(CN(C2Cc3cc(C#N)ccc3N(Cc3cncn3C)C2)S(=O)(=O)CS(C)(=O)=O)CC1 (stereo not drawn) lies strictly below 200 nM
A) -1

Q) EC50 strictly < 200 nM for this molecule? Cn1cncc1CN1CC(N(Cc2cccc(-n3cccn3)c2)S(=O)(=O)c2ccccn2)Cc2cc(C#N)ccc21 (stereo not drawn)
A) -1

Q) Does this molecule meet the criterion EC50 < 200 nM? Cn1cnc(S(=O)(=O)N(Cc2cccnc2)C2Cc3cc(C#N)ccc3N(Cc3cncn3C)C2)c1 (stereo not drawn)
A) -1

###

Tested on: Plasmodium falciparum
Assay: Antimalarial activity against Plasmodium falciparum K1
Type: functional
Conditions: Plasmodium falciparum, K1; read-out: ED50 (the source's name)
Readings of EC50 for the listed compounds
Supply the numeric figure in nM, leaving out any unit text.

For orientation, consider the following solved cases.
>  <Compound>
Cn1cnc(S(=O)(=O)N(Cc2ccc(S(C)(=O)=O)cc2)C2Cc3cc(C#N)ccc3N(Cc3cncn3C)C2)c1 (centres undefined)

>  <Measured Parameter>
EC50

>  <Measured Number>
10

$$$$
>  <Compound>
Cn1cncc1CN1CC(N(CCc2ccccc2C(F)(F)F)S(=O)(=O)c2ccccn2)Cc2cc(C#N)ccc21 (centres undefined)

>  <Measured Parameter>
EC50

>  <Measured Number>
1500

$$$$
>  <Compound>
Cn1cnc(S(=O)(=O)N(Cc2ccc(F)cc2)C2Cc3cc(C#N)ccc3N(Cc3cncn3C)C2)c1 (centres undefined)

>  <Measured Parameter>
EC50

>  <Measured Number>
100

$$$$

Q) Can you share its EC50? I mean this compound: CCCS(=O)(=O)N(CC1CCN(C(=O)OC)CC1)C1Cc2cc(C#N)ccc2N(Cc2cncn2C)C1 (centres undefined)
A) 1800

###

Biological target: Protein farnesyltransferase (Rattus norvegicus)
Assay: Inhibition of protein farnesyltransferase
Measured Parameter: pIC50
Quick note: pIC50 means taking -log10 of the concentration in moles per liter.

>  <Compound>
Cc1ccccc1CN(C1Cc2cc(C#N)ccc2N(Cc2cncn2C)C1)S(=O)(=O)c1cn(C)cn1 (centres undefined)

>  <pIC50>
8.47

$$$$
>  <Compound>
Cn1cncc1CN1CC(N(CC2CCN(C(=O)OC(C)(C)C)CC2)S(=O)(=O)c2ccccn2)Cc2cc(C#N)ccc21 (centres undefined)

>  <pIC50>
8.15

$$$$
>  <Compound>
Cn1cncc1CN1CC(N(CC2CCN(C(=O)CC(C)(C)C)CC2)S(=O)(=O)c2ccccn2)Cc2cc(C#N)ccc21 (centres undefined)

>  <pIC50>
8.11

$$$$

Q) Quick check: pIC50 of Cn1cnc(S(=O)(=O)N(Cc2ccc3ccccc3c2Br)C2Cc3cc(C#N)ccc3N(Cc3cncn3C)C2)c1 (centres undefined) ?
A) 6.00

###

EC50 values by entry
Tested on: Plasmodium falciparum
Assay: Antimalarial activity against Plasmodium falciparum K1
Assay type: functional
Conditions: Plasmodium falciparum, K1; read-out: ED50 (the source's name)
API: value field is a number in nM; no unit string.

Q) Please state recorded EC50 (tested on Plasmodium falciparum) of Cn1cncc1CN1CC(N(CCn2ccc3ccccc32)S(=O)(=O)c2ccccn2)Cc2cc(C#N)ccc21 (configuration not stated)
A) 400

Q) Give EC50 (Plasmodium falciparum) of the following molecule: Cn1cncc1CN1CC(N(CC2CCN(C(=O)c3ccccc3)CC2)S(=O)(=O)c2ccccn2)Cc2cc(C#N)ccc21 (configuration not stated)
A) 330

Q) Find EC50 (Plasmodium falciparum) for the entry Cn1cnc(S(=O)(=O)N(CCc2ccc(F)cc2)C2Cc3cc(C#N)ccc3N(Cc3cncn3C)C2)c1 (configuration not stated)
A) 65

Q) Which measured EC50 belongs to COc1ccc(S(=O)(=O)N(Cc2ccc(S(C)(=O)=O)cc2)C2Cc3cc(C#N)ccc3N(Cc3cncn3C)C2)cc1 (configuration not stated) , tested on Plasmodium falciparum?
A) 340

Q) API: value(readout= EC50, system= Plasmodium falciparum, query= Cn1cnc(S(=O)(=O)N(Cc2ccccn2)C2Cc3cc(C#N)ccc3N(Cc3cncn3C)C2)c1 (configuration not stated) )
A) 36

Q) Find EC50 (Plasmodium falciparum) for the entry Cn1cncc1CN1CC(N(CCC2(C)OCC(C)(C)CO2)S(=O)(=O)c2ccccn2)Cc2cc(C#N)ccc21 (configuration not stated)
A) 240

Q) Lab note: need EC50 for Cc1oncc1CN(C1Cc2cc(C#N)ccc2N(Cc2cncn2C)C1)S(=O)(=O)c1ccccn1 (configuration not stated) on Plasmodium falciparum, anyone have it?
A) 2800

Q) I'm curious: which EC50 was measured for CCC(=O)N1CCC(CN(C2Cc3cc(C#N)ccc3N(Cc3cncn3C)C2)S(=O)(=O)c2ccccn2)CC1 (configuration not stated) tested on Plasmodium falciparum?
A) 25
